tested.on: SARS-CoV-2 RBD (SARS-CoV-2)
measurement.description: ELISA, 100 ng coated RBD, neat supernatant, anti-human IgG-HRP
experimental.readout: Binding SARS-CoV-2
Numbers only.

Worked cases, Binding SARS-CoV-2 given:
Antibody 14 (SS6V14-F2) (antibody, V domains shown) VH: QVQLQESGPGLVKPSETLSLTCTVSGGPISSYYWTWIRQPPGKGLEWIGYIYYSGSTNYSPSLKSRVTMSLETSKNQFSLKLTSVTAADTAVYYCARDPLAEGAASSGFDNWGQGTLVTVSS VL: DIQMTQSPSSLSASVGDRVTITCRASQSISSYLNWYQQKPGKAPKLLIYAASALQSGVPSRFSGSGSGTHFSLTINGLQPEDFATYSCQQSYTTPRTFGPGTKVEIK	1.54
Antibody 12 (SS6V12-E11) (antibody, V domains shown) VH: EVQLVESGGGLVKPGGSLRLSCAASGFTFSTYNMNWVRQAPGKGLEWVSSISSSSSFMFYADSVKGRFTISRDNANNSLYLQMNSLRAEDTAVYYCARDYYDNSGYYYYGMDVWGQGTTVTVSS VL: DIQMTQSPSSLSASVGDRVTITCRASQSIRTYLSWYQQKPGKAPELLIYAASNLQSGVPSRFSGSGSGTDFTLTISSLQPEDFATYYCLQTYSTPQITFGQGTRLEIE	1.45

The record that follows has no Binding SARS-CoV-2 shown yet.
Task item: Could you tell me which Binding SARS-CoV-2 is on file for Antibody 5 (SS6V5-C3) (antibody, V domains shown) VH: EVQLVQSGAEVRKPGESLKISCKTSGYTFTHYWIGWVRQLPGKGLEWMGIIYPDDSDTKYSPSFQGQITISADKSISTAYLQWNSLKASDTAMYFCATADIVVGSNFFDHWGQGTLVTVSS VL: DIQMTQSPSTLSASVGDRVTITCRASQSISTWLAWYQQKPGKPPKVLIYKASILESGVSSRFSGSGSGTEFTLTISSLQPDDFATYYCQHYNSYIKTFGQGTKVEIK ?
Reply: 1.68
